# tgt: AR (gene 367) (UniProt P10275)
# Sequence (P10275 whole entry, looked up): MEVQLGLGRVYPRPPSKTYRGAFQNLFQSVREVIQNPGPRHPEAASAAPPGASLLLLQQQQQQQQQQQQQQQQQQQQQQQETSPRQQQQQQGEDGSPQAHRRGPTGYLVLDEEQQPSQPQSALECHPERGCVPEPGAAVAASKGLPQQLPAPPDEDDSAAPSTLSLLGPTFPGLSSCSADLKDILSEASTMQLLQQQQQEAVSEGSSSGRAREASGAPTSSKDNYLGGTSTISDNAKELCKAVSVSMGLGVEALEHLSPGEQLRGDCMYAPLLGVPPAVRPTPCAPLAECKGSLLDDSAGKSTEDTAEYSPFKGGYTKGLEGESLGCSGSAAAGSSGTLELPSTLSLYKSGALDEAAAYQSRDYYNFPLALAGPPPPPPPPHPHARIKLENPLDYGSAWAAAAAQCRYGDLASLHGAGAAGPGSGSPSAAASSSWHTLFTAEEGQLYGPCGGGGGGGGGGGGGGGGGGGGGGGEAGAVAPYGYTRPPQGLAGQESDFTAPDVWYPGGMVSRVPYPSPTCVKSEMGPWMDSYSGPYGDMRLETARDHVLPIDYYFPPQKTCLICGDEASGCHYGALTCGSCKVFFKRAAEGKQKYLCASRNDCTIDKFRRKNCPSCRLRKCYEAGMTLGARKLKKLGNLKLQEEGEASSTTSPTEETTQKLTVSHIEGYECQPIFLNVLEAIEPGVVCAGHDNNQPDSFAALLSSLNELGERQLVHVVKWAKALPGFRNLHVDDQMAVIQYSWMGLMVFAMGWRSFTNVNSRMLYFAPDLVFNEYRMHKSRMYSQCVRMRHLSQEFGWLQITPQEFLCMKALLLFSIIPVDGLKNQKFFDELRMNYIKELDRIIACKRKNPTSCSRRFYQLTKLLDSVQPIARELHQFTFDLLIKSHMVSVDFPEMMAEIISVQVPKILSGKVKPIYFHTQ
# method description: ACEA_AR_agonist_80hr: ACEA Biosciences xCELLigence Real-Time Cell Analysis on Androgen Receptor Agonism for Proliferation (AID 2283783);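 further: hits increase impedance growth signal above DMSO baseline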
Records with an inconclusive call do not appear. The source made the active and inactive calls. How the source made its calls: active means hit-call score of the fitted dose curve at least 0.9, where 1 is the maximum; inconclusive means response in the unintended direction; inactive means score below 0.9.
experimental readout: outcome

Please review the entries below; each comes with its answer.
CC1(C)C(C=C(Cl)Cl)C1C(=O)OCc1cccc(Oc2ccccc2)c1 (stereo unspecified)    inactive
O=C(O)C1(C(=O)Nc2ccc(Cl)cc2Cl)CC1    inactive
CCCCOCCOCCOCc1cc2c(cc1CCC)OCO2    inactive
COC(=O)CSc1cc(N=c2sc(=O)n3n2CCCC3)c(F)cc1Cl    inactive
CCOC(=O)COc1cc(-n2ncc(C(F)(F)F)c(C)c2=O)c(F)cc1Cl    inactive

Now, please, on to the next compound.
Problem: Bench note: what outcome did C[C@]12CC[C@@H]3c4ccc(O)cc4C[C@@H](CCCCCCCCCS(=O)CCCC(F)(F)C(F)(F)F)[C@H]3[C@@H]1CC[C@@H]2O (stereo partly specified) show?
Solution: inactive
